For each of the compounds below, state its pIC50.
- Assay System: UniProt:P26663
pIC50: −log10 of the molar value.

Read the entry Cc1ccc(NC(=O)[C@H](CCCCN)NC(=O)Nc2ccc(F)cc2)cc1 and write its reported pIC50.
< 4.30

Read the entry Cc1ccc(NC(=O)[C@H](CCCCN)NC(=O)Nc2ccc(OCc3ccccc3)c(Cl)c2)cc1 and write its reported pIC50.
4.30 to 5.00

Read the entry CC[C@H](NC(=O)OCC1c2ccccc2-c2ccccc21)C(=O)Nc1ccc(CN(C(=O)c2ccco2)C2CCCCC2)cc1 and write its reported pIC50.
< 4.30

Read the entry Cc1ccc(NC(=O)C(CCCCN)NC(=O)OCc2ccccc2)cc1 (centres unmarked) and write its reported pIC50.
< 4.30

Read the entry COc1ccc(CNC(=O)N[C@@H](CCCCN)C(=O)Nc2ccc(C)cc2)cc1 and write its reported pIC50.
< 4.30

Read the entry NCCCC[C@H](NC(=O)OCC1c2ccccc2-c2ccccc21)C(=O)Nc1cccc(F)c1 and write its reported pIC50.
< 4.30

Read the entry Cc1ccc(NC(=O)[C@H](CCCCN)NS(=O)(=O)c2ccsc2)cc1 and write its reported pIC50.
< 4.30

Read the entry COc1ccc(C=Cc2ccc(NC(=O)N[C@@H](CCCCN)C(=O)Nc3ccc(C)cc3)cc2)cc1 and write its reported pIC50.
> 5.00

---

pIC50: −log10 of the molar value.
The following are reported pIC50 results, target or system HCV RdRp (NS5B) (UniProt P26663).

System HCV RdRp (NS5B) (UniProt P26663). Read-out pIC50. Item C[C@H](N)C(=O)Nc1ccc(CN(C(=O)c2ccco2)C2CCCCC2)cc1 . Report value.
< 4.30

System HCV RdRp (NS5B) (UniProt P26663). Read-out pIC50. Item Cc1ccc(NC(=O)[C@H](CCCCN)NC(=O)NC2c3ccccc3-c3ccccc32)cc1 . Report value.
> 5.00

System HCV RdRp (NS5B) (UniProt P26663). Read-out pIC50. Item Cc1ccc(NC(=O)[C@H](CCCCN)NC(=O)OCC2c3ccccc3-c3ccccc32)cc1C . Report value.
4.30 to 5.00

System HCV RdRp (NS5B) (UniProt P26663). Read-out pIC50. Item Cc1ccc(NC(=O)C(Cc2ccc(O)cc2)NC(=O)OCC2c3ccccc3-c3ccccc32)cc1 (stereo not shown) . Report value.
< 4.30

System HCV RdRp (NS5B) (UniProt P26663). Read-out pIC50. Item Cc1cc2cc(NC(=O)[C@H](CCCNC(=O)CN)NC(=O)OCC3c4ccccc4-c4ccccc43)ccc2[nH]1 . Report value.
> 5.00

System HCV RdRp (NS5B) (UniProt P26663). Read-out pIC50. Item NCCCC[C@H](NC(=O)OCC1c2ccccc2-c2ccccc21)C(=O)Nc1ccncc1 . Report value.
< 4.30

System HCV RdRp (NS5B) (UniProt P26663). Read-out pIC50. Item Cc1ccc(NC(=O)[C@H](CCCCN)NC(=O)Nc2cccc(Br)c2)cc1 . Report value.
< 4.30

System HCV RdRp (NS5B) (UniProt P26663). Read-out pIC50. Item NCCCC[C@H](NC(=O)Nc1ccc(-c2ccccc2)cc1)C(=O)Nc1ccc(C2CCCCC2)cc1 . Report value.
> 5.00

System HCV RdRp (NS5B) (UniProt P26663). Read-out pIC50. Item Cc1ccc(NC(=O)C(NC(=O)OCC2c3ccccc3-c3ccccc32)C(C)O)cc1 (stereo not shown) [Compound 376] . Report value.
< 4.30

System HCV RdRp (NS5B) (UniProt P26663). Read-out pIC50. Item CC(C)(C)c1ccc(NC(=O)[C@H](CCCCN)NC(=O)OCC2c3ccccc3-c3ccccc32)cc1 . Report value.
4.30 to 5.00

System HCV RdRp (NS5B) (UniProt P26663). Read-out pIC50. Item Cc1ccc(NC(=O)[C@@H](N)CCCCN)cc1 . Report value.
< 4.30

System HCV RdRp (NS5B) (UniProt P26663). Read-out pIC50. Item Cc1ccc(NC(=O)C(CCCCN)NC(=O)CNc2ccc(C(F)(F)F)cc2)cc1 (stereo not shown) . Report value.
< 4.30

System HCV RdRp (NS5B) (UniProt P26663). Read-out pIC50. Item CC(C)(C)c1ccc(NC(=O)[C@H](Cc2ccc(CN)cc2)NC(=O)NCc2ccc(Cl)c(Cl)c2)cc1 . Report value.
> 5.00

System HCV RdRp (NS5B) (UniProt P26663). Read-out pIC50. Item Cc1ccc(NC(=O)[C@H](CCCCN)NC(=O)Nc2ccc(OCc3ccncc3)cc2)cc1 . Report value.
< 4.30

System HCV RdRp (NS5B) (UniProt P26663). Read-out pIC50. Item NCc1ccc(CNC(=O)[C@@H](NC(=O)Nc2ccc(OCc3ccccc3)cc2)c2ccccc2)cc1 . Report value.
4.30 to 5.00

System HCV RdRp (NS5B) (UniProt P26663). Read-out pIC50. Item NCCCC[C@@H](NC(=O)Nc1cccc2ccccc12)C(=O)Nc1ccc(CN(C(=O)c2ccco2)C2CCCCC2)cc1 . Report value.
< 4.30

---

For each of the compounds below, state its IC50.

System HCV RdRp (NS5B). Read-out IC50. Item CCNCC(=O)N1CCN(C(=O)OCC2c3ccccc3-c3ccccc32)C(CC(=O)Nc2ccc(C)cc2)C1 (stereo not shown) . Report value.
10 to 50 µM

System HCV RdRp (NS5B). Read-out IC50. Item O=C(Nc1ccc(C2CCCCC2)cc1)C1CN(C(=O)OCC2c3ccccc3-c3ccccc32)CCN1 (stereo not shown) . Report value.
> 50 µM

System HCV RdRp (NS5B). Read-out IC50. Item Cc1ccc(NC(=O)C(CCCCN)NC(=O)c2cccc3ccccc23)cc1 (stereo not shown) . Report value.
> 50 µM

System HCV RdRp (NS5B). Read-out IC50. Item Cc1ccc(NC(=O)C2(NC(=O)OCC3c4ccccc4-c4ccccc43)CCCNC2)cc1 (stereo not shown) . Report value.
> 50 µM

System HCV RdRp (NS5B). Read-out IC50. Item CC(=O)NCC(=O)N1CCN(C(=O)OCC2c3ccccc3-c3ccccc32)C(CC(=O)Nc2ccc(C)cc2)C1 (stereo not shown) . Report value.
> 50 µM

System HCV RdRp (NS5B). Read-out IC50. Item NCCCCC[C@H](NC(=O)OCC1c2ccccc2-c2ccccc21)C(=O)Nc1ccc(C2CCCCC2)cc1 . Report value.
< 10 µM

System HCV RdRp (NS5B). Read-out IC50. Item Cc1cc2cc(NC(=O)CN(CCCCN)C(=O)OCC3c4ccccc4-c4ccccc43)ccc2[nH]1 . Report value.
< 10 µM

---

The following are reported IC50 results, target or system HCV RdRp (NS5B).

System HCV RdRp (NS5B). Read-out IC50. Item Cc1ccc(NC(=O)C(CCCCN)NC(=O)C2c3ccccc3-c3ccccc32)cc1 (stereo not shown) . Report value.
> 50 µM

System HCV RdRp (NS5B). Read-out IC50. Item Cc1ccc(NC(=O)C2CCCCN2C(=O)OCC2c3ccccc3-c3ccccc32)cc1 (stereo not shown) [Compound 123] . Report value.
> 50 µM

System HCV RdRp (NS5B). Read-out IC50. Item Cc1ccc(NC(=O)C(CCCCN)NC(=O)NCCc2ccc(-c3ccccc3)cc2)cc1 (stereo not shown) . Report value.
10 to 50 µM

System HCV RdRp (NS5B). Read-out IC50. Item NCCCC[C@H](NC(=O)OCC1c2ccccc2-c2ccccc21)C(=O)Nc1ccc(CN)cc1 . Report value.
< 10 µM

System HCV RdRp (NS5B). Read-out IC50. Item Cc1ccc(NC(=O)[C@H](CCCCN)NC(=O)Nc2ccc(OCc3ccc(F)c(F)c3)cc2)cc1 . Report value.
10 to 50 µM

System HCV RdRp (NS5B). Read-out IC50. Item NCCCC[C@H](NC(=O)Nc1ccc(OCc2ccccc2)cc1)C(=O)Nc1nc2ccccc2s1 . Report value.
> 50 µM

System HCV RdRp (NS5B). Read-out IC50. Item NCCC[C@H](NC(=O)OCC1c2ccccc2-c2ccccc21)C(=O)Nc1ccc(CN(C(=O)c2ccco2)C2CCCCC2)cc1 . Report value.
10 to 50 µM

System HCV RdRp (NS5B). Read-out IC50. Item Cc1ccc(NC(=O)[C@H](CCCCN)NC(=O)Nc2ccc(OCc3ccc(F)cc3)cc2)cc1 . Report value.
10 to 50 µM

System HCV RdRp (NS5B). Read-out IC50. Item NCCCC[C@H](NC(=O)OCC1c2ccccc2-c2ccccc21)C(=O)Nc1cc(-c2ccccc2)n[nH]1 . Report value.
10 to 50 µM

System HCV RdRp (NS5B). Read-out IC50. Item Cc1ccc(NC(=O)[C@H](CCCCN)NC(=O)Nc2ccc3c(c2)Cc2ccccc2-3)cc1 . Report value.
< 10 µM

System HCV RdRp (NS5B). Read-out IC50. Item Cc1ccc(NC(=O)[C@H](CCCCN)NC(=O)CNCc2ccccc2Cl)cc1 . Report value.
> 50 µM

System HCV RdRp (NS5B). Read-out IC50. Item Cc1ccc(NC(=O)[C@H](CCCCN)NC(=O)Nc2ccc(OCc3ccc(F)cc3F)cc2)cc1 . Report value.
10 to 50 µM

System HCV RdRp (NS5B). Read-out IC50. Item Cc1ccc(NC(=O)[C@H](CCCCN)NC(=O)CNCc2ccc(Cl)cc2)cc1 . Report value.
> 50 µM

System HCV RdRp (NS5B). Read-out IC50. Item NCCCCN(CC(=O)Nc1ccc(C2CCCCC2)cc1)C(=O)Nc1ccc(C=Cc2ccccc2)cc1 . Report value.
10 to 50 µM

System HCV RdRp (NS5B). Read-out IC50. Item Cc1ccc(NC(=O)C(CCCCN)NC(=O)Nc2ccc(C(F)(F)F)cc2)cc1 (stereo not shown) . Report value.
10 to 50 µM

System HCV RdRp (NS5B). Read-out IC50. Item Cc1ccc(NC(=O)[C@H](CCCCN)NC(=O)Nc2ccc3c(c2)OCCO3)cc1 . Report value.
> 50 µM

System HCV RdRp (NS5B). Read-out IC50. Item Cc1ccc(NC(=O)CC2CN(C(=O)CN)CCN2C(=O)OCC2c3ccccc3-c3ccccc32)cc1 (racemic) . Report value.
> 50 µM

System HCV RdRp (NS5B). Read-out IC50. Item Cc1ccc(NC(=O)CN(CCCCN)C(=O)OCC2c3ccccc3-c3ccccc32)cc1 . Report value.
< 10 µM

System HCV RdRp (NS5B). Read-out IC50. Item Cc1ccc(NC(=O)[C@H](CCCCN)NC(=O)CNc2ccc(Cl)cc2)cc1 . Report value.
> 50 µM

System HCV RdRp (NS5B). Read-out IC50. Item Cc1ccc(NC(=O)C(CCCCN)NS(=O)(=O)c2ccc(C(F)(F)F)cc2)cc1 (stereo not shown) . Report value.
> 50 µM

System HCV RdRp (NS5B). Read-out IC50. Item Cc1ccc(NC(=O)C(CCCCN)NC(=O)Nc2ccc(CN(C)c3ccc([N+](=O)[O-])cc3)cc2)cc1 (stereo not shown) . Report value.
< 10 µM

System HCV RdRp (NS5B). Read-out IC50. Item NCCC(=O)Nc1ccccc1NC(=O)CNC(=O)OCC1c2ccccc2-c2ccccc21 . Report value.
> 50 µM

System HCV RdRp (NS5B). Read-out IC50. Item Cc1ccc(NC(=O)[C@H](CCCCN)NC(=O)CNCc2ccccc2)cc1 . Report value.
> 50 µM

System HCV RdRp (NS5B). Read-out IC50. Item Cc1ccc(NC(=O)C(CCCCN)NC(=O)Nc2cccc(Cc3ccccc3)c2)cc1 (stereo not shown) . Report value.
10 to 50 µM

System HCV RdRp (NS5B). Read-out IC50. Item CC(C)(C)c1ccc(NC(=O)CN(CCCCN)C(=O)Nc2ccc(OCc3ccccc3)cc2)cc1 . Report value.
> 50 µM

System HCV RdRp (NS5B). Read-out IC50. Item NCCCC[C@H](NC(=O)OCC1c2ccccc2-c2ccccc21)C(=O)N(Cc1ccccc1)C1CCCCC1 . Report value.
10 to 50 µM

System HCV RdRp (NS5B). Read-out IC50. Item Cc1ccc(NC(=O)C(CCCCN)NC(=O)OCC2c3ccccc3-c3ccccc32)cn1 (stereo not shown) . Report value.
> 50 µM

System HCV RdRp (NS5B). Read-out IC50. Item Cc1ccc(NC(=O)C(CCCCN)NC(=O)c2ccccc2-c2ccccc2)cc1 (stereo not shown) . Report value.
> 50 µM

System HCV RdRp (NS5B). Read-out IC50. Item Cc1ccc(NC(=O)C[C@H](CCCCN)NC(=O)Nc2ccc(OCc3ccccc3)cc2)cc1 . Report value.
10 to 50 µM

System HCV RdRp (NS5B). Read-out IC50. Item Cc1ccc(NC(=O)[C@H](CCCCN)NS(=O)(=O)c2ccc(Cl)cc2)cc1 . Report value.
> 50 µM

System HCV RdRp (NS5B). Read-out IC50. Item COC(=O)[C@H](Cc1c[nH]c2ccccc12)NC(=O)C(CCCCN)NC(=O)OCC1c2ccccc2-c2ccccc21 (stereo partly shown) . Report value.
> 50 µM
